molecular target: human FAAH (Homo sapiens, UniProt O00519); construct: made in house; host or cells: E. coli; experiment: FAAH assay, human FAAH enzyme inactivation (kinact/Ki); assay type: biochemical; settings: pH 7.4, in vitro, oleamide 50 μM, 30° C., read-out: hFAAH kinact/Ki
Sequence (O00519 whole entry): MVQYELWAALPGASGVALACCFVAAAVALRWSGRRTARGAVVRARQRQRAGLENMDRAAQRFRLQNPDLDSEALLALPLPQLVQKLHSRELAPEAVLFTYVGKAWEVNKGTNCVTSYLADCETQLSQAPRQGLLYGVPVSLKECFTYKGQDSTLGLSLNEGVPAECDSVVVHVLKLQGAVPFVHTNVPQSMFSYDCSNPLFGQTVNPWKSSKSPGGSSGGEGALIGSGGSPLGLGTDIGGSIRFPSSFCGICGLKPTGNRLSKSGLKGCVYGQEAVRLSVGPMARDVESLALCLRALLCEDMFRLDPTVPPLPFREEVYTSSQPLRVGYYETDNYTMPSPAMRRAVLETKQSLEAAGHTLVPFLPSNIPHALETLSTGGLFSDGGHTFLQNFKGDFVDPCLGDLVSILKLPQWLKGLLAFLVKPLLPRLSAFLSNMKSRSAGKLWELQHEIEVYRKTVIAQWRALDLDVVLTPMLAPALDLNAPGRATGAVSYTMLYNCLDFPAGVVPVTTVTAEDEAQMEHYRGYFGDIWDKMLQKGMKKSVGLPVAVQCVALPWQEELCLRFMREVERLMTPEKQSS
Observation type: kinact/KI (M⁻¹ s⁻¹)

Cc1noc(NC(=O)N2CCC3(CC2)CC(c2cccc(Cl)c2)CO3)c1C (single isomer, unassigned) [Example 35] : 2390

1: Cc1noc(NC(=O)N2CCC3(CC2)CC(c2cccc(-c4ccc(Cl)cc4)c2)CO3)c1C (racemic) [Example 55]
2: Cc1noc(NC(=O)N2CCC3(CC2)CC(c2ccc4c(c2)OCO4)CO3)c1C (racemic) [Example 24]
3: Cc1noc(NC(=O)N2CCC3(CC2)C[C@@H](c2ccc(OCc4ccc(Cl)cc4)cc2)CO3)c1C [Example 50]
Inquiry: Reorder the items by kinact/KI, least to greatest. # answer = labels listed in requested order
Reply text: 2, 1, 3
(2: 788 M⁻¹ s⁻¹, 1: 2070 M⁻¹ s⁻¹, 3: 7470 M⁻¹ s⁻¹)

###

molecular target: rat FAAH (Rattus norvegicus); construct: made in house; host or cells: E. coli; assay: FAAH assay, rat FAAH enzyme inactivation (kinact/Ki); type: biochemical; details: pH 7.4, in vitro, oleamide 50 μM, 30° C., read-out: rFAAH kinact/Ki
Observation type: kinact/KI (M⁻¹ s⁻¹)

Solved cases (2 shown):
Cc1noc(NC(=O)N2CCC3(CC2)CC(c2cccc(C(F)(F)F)c2)CO3)c1C (single isomer, unassigned) [Example 66] : 2920
Cn1nnnc1NC(=O)N1CCC2(CC1)C[C@@H](c1ccc(OCc3ccc(F)cc3)cc1)CO2 [Example 91] : 7500

P: Cn1nnnc1NC(=O)N1CCC2(CC1)C[C@H](c1ccc(OCc3ccc(C(F)(F)F)cn3)cc1)CO2 [Example 95]
Q: Cc1noc(NC(=O)N2CCC3(CC2)C[C@@H](c2cccc(-c4ccc(F)c(F)c4)c2)CO3)c1C [Example 57]
R: Cn1nnnc1NC(=O)N1CCC2(CC1)C[C@H](c1cccc(Oc3ccc(Cl)cn3)c1)CO2 [Example 81]
Inquiry: Sort ascending by kinact/KI. # respond with the labels, arranged in the requested order
Reply text: Q, R, P
(Q: 2110 M⁻¹ s⁻¹, R: 11200 M⁻¹ s⁻¹, P: 30300 M⁻¹ s⁻¹)

P: Cn1nnnc1NC(=O)N1CCC2(CC1)C[C@H](c1ccc(OCc3ccc(F)cc3)cc1)CO2 [Example 90]
Q: Cc1noc(NC(=O)N2CCC3(CC2)C[C@H](c2cccc(-c4ccc(F)cc4)c2)CO3)c1C [Example 59]
Inquiry: Lower kinact/KI: P or Q ? Response format: the label of the selected entry.
Reply text: Q
(Q: 879 M⁻¹ s⁻¹, P: 22600 M⁻¹ s⁻¹)

###

Biological target: rat FAAH (Rattus norvegicus)
Construct: made in house; host or cells: E. coli
Sequence (P97612 1-579): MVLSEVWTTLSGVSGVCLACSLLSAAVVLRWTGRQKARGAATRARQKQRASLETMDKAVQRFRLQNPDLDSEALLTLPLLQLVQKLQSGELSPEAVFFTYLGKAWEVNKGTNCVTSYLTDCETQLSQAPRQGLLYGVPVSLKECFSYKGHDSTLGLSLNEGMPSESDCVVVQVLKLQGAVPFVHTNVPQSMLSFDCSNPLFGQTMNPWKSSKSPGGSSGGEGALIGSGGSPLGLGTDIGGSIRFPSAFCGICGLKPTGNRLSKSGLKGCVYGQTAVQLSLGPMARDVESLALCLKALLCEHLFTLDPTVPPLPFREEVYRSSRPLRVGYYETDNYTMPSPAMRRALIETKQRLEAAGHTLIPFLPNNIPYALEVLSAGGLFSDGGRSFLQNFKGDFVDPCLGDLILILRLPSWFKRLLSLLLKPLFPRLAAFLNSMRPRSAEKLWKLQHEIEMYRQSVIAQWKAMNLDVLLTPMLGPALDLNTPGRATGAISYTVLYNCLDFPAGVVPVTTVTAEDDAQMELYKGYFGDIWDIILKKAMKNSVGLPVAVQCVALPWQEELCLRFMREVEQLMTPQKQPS
Assay: FAAH assay, rat FAAH enzyme inactivation (kinact/Ki)
Format: biochemical
Settings: pH 7.4, in vitro, oleamide 50 μM, 30° C., read-out: rFAAH kinact/Ki
Observation type: kinact/KI (M⁻¹ s⁻¹)

Observe how each entry below is paired with its result.
Cc1noc(NC(=O)N2CCC3(CC2)CC(c2cccc(Cl)c2)CO3)c1C (racemic) : 2670
Cc1noc(NC(=O)N2CCC3(CC2)CC(c2ccc(OCc4cccc(Cl)c4)c(Cl)c2)CO3)c1C (single isomer, unassigned) [Example 45] : 7130
O=C(Nc1cccnn1)N1CCC2(CC1)C[C@H](c1cccc(Oc3ccc(Br)cn3)c1)CO2 : 3340
O=C(Nc1cccnn1)N1CCC2(CC1)C[C@@H](c1cccc(Oc3ccc(Br)cn3)c1)CO2 : 5890
O=C(Nc1cccnn1)N1CCC2(CC1)C[C@@H](c1cccc(Oc3ccc(Cl)cn3)c1)CO2 : 2270

A: Cc1noc(NC(=O)N2CCC3(CC2)C[C@@H](c2ccc(OCc4ccc(F)c(F)c4)cc2)CO3)c1C
B: Cc1noc(NC(=O)N2CCC3(CC2)CC(c2ccc(OCc4ccccc4Cl)c(Cl)c2)CO3)c1C (racemic)
Inquiry: Among A and B , whose measured kinact/KI is the smaller figure? Pick one; state its label.
Reply text: B

a: Cc1noc(NC(=O)N2CCC3(CC2)CC(c2ccc4c(c2)OCO4)CO3)c1C (racemic)
b: Cn1nnnc1NC(=O)N1CCC2(CC1)C[C@H](c1cccc(-c3ccc(C(F)(F)F)cn3)c1)CO2
c: Cc1noc(NC(=O)N2CCC3(CC2)CC(c2ccc(F)c(Cl)c2)CO3)c1C (racemic)
Inquiry: Sort by kinact/KI, descending. As an answer, provide the labels arranged in the order called for.
Reply text: c, b, a
(c: 3950 M⁻¹ s⁻¹, b: 2690 M⁻¹ s⁻¹, a: 431 M⁻¹ s⁻¹)

I: Cc1noc(NC(=O)N2CCC3(CC2)C[C@@H](c2ccc(OCc4cccc(F)c4)cc2)CO3)c1C
II: Cc1noc(NC(=O)N2CCC3(CC2)C[C@@H](c2ccc(OCc4ccc(Cl)cc4)cc2)CO3)c1C
Inquiry: Exercise: compare I and II ; which one has the greater kinact/KI? Pick one; state its label.
Reply text: II

###

molecular target: human FAAH (Homo sapiens, UniProt O00519); construct: made in house; host or cells: E. coli; assay: FAAH assay, human FAAH enzyme inactivation (kinact/Ki); assay type: biochemical; conditions: pH 7.4, in vitro, oleamide 50 μM, 30° C., read-out: hFAAH kinact/Ki
Observation type: kinact/KI (M⁻¹ s⁻¹)

Cc1noc(NC(=O)N2CCC3(CC2)CC(c2cc(F)cc(Cl)c2)CO3)c1C (racemic) [Example 16] : 1990
O=C(Nc1cccnc1)N1CCC2(CC1)C[C@H](c1cccc(Oc3ccc(Br)cn3)c1)CO2 [Example 7] : 2890
Cc1noc(NC(=O)N2CCC3(CC2)CC(c2ccc(OCc4cccc(F)c4)cc2)CO3)c1C (racemic) [Example 22] : 6030
Cc1noc(NC(=O)N2CCC3(CC2)C[C@H](c2ccc(OCc4ccc(F)cc4)cc2)CO3)c1C [Example 41] : 12500
Cc1noc(NC(=O)N2CCC3(CC2)CC(c2ccc(OCc4ccc(F)cc4)c(Cl)c2)CO3)c1C (racemic) [Example 19] : 6710

P: Cn1nnnc1NC(=O)N1CCC2(CC1)C[C@H](c1cccc(-c3ccc(C(F)(F)F)cn3)c1)CO2 [Example 99]
Q: Cc1nnc(NC(=O)N2CCC3(CC2)CC(c2cccc(OC(F)(F)F)c2)CO3)o1 (single isomer, unassigned) [Example 70]
Inquiry: Kindly compare P with Q and tell me which has the lower kinact/KI figure. Write down the label attached to your selection.
Reply text: Q
(Q: 2110 M⁻¹ s⁻¹, P: 9970 M⁻¹ s⁻¹)

###

Molecular target: rat FAAH (Rattus norvegicus)
Construct: made in house; host or cells: E. coli
Sequence (P97612 1-579): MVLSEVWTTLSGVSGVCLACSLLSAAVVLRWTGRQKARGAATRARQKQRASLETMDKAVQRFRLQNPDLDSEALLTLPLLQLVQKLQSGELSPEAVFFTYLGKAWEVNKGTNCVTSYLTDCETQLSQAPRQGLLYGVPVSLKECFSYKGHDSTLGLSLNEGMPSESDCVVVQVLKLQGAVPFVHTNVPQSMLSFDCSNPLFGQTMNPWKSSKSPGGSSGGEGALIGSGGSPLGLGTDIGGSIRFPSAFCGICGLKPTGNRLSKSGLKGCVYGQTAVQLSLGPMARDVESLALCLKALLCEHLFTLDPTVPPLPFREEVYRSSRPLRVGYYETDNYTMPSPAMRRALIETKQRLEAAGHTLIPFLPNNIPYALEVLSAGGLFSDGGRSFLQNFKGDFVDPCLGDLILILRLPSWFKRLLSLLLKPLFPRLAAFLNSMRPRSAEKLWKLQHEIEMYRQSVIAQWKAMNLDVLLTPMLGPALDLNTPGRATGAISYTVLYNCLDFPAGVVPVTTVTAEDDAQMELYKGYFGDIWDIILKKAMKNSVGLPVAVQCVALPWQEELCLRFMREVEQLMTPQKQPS
Assay: FAAH assay, rat FAAH enzyme inactivation (kinact/Ki)
Type: biochemical
Details: pH 7.4, in vitro, oleamide 50 μM, 30° C., read-out: rFAAH kinact/Ki
Observation type: kinact/KI (M⁻¹ s⁻¹)

O=C(Nc1cccnn1)N1CCC2(CC1)CC(c1cccc(Oc3ccc(C(F)(F)F)cn3)c1)CO2 (racemic) : 1880
Cc1noc(NC(=O)N2CCC3(CC2)CC(c2ccc(OCc4cccc(Cl)c4)c(Cl)c2)CO3)c1C (racemic) [Example 21] : 3550

A: Cc1noc(NC(=O)N2CCC3(CC2)CC(c2ccc(Cl)c(Cl)c2)CO3)c1C (single isomer, unassigned) [Example 37]
B: Cc1nnc(NC(=O)N2CCC3(CC2)CC(c2cccc(OC(F)(F)F)c2)CO3)o1 (single isomer, unassigned)
Inquiry: I would appreciate it if you could say which entry, A or B , has the lower kinact/KI value. Output the label that corresponds to your choice.
Reply text: B

Numbers sourced from patent US20110230493A1.
